Values were extracted from patent US4226883A.

# Test system: green rice leafhoppers of the strain RN
# measurement.description: Test Example 3: dust spray test (20 mesh metal gauze cylinder)
# Type: in vivo, Nephotettix cincticeps
# condition.notes: Table 9; dust mixed with Carbofuran; RN
value.type: death ratio (%), mixture with Carbofuran
Please state the figure in %; there is no need to write the unit.

Prompt: I am curious: what death ratio (%), mixture with Carbofuran value has been reported for CCOc1ccccc1OC(=O)NC [Compound 79, reference compound] ?
Completion: 40.0

Prompt: Give its death ratio (%), mixture with Carbofuran value. Item: "CCCCNC(=O)Oc1ccccc1OC(C)C"
Completion: 55.0

Prompt: What value of death ratio (%), mixture with Carbofuran has been recorded for this entry: C=CCNC(=O)Oc1ccccc1OC(C)C [Compound 85, 2-isopropoxyphenyl-N-allylcarbamate]
Completion: 85.0

Prompt: GET /values?readout=death ratio (%), mixture with Carbofuran&item= CNC(=O)Oc1ccccc1OC(C)C [Compound 81, 2-isopropoxyphenyl-N-methylcarbamate, reference compound]
Completion: 30.0

Prompt: # query: death ratio (%), mixture with Carbofuran of entry CCCNC(=O)Oc1ccccc1OC [Compound 77, 2-methoxyphenyl-N-n-propylcarbamate]
Completion: 100

Prompt: Need death ratio (%), mixture with Carbofuran, item CCCNC(=O)Oc1ccccc1OCC [Compound 80, 2-ethoxyphenyl-N-n-propylcarbamate]
Completion: 85.0

Prompt: What measured death ratio (%), mixture with Carbofuran goes with CCCNC(=O)Oc1ccccc1OC(C)C [Compound 83, 2-isopropoxyphenyl-N-n-propylcarbamate] ?
Completion: 100

Prompt: // query death ratio (%), mixture with Carbofuran value for entry CNC(=O)Oc1ccccc1OC [Compound 76, reference compound]
Completion: 60.0

---

So I've got a bunch of compounds here, and I need their log10 LD50 at 168 h values.
# measurement.description: in vivo
# condition.notes: mouse, po
Recall that a logarithmic scale is used here: each number is log10 of LD50 at 168 h in mg/kg.

Prompt: Quick one: log10 LD50 at 168 h of CCC(C)c1cccc(OC(=O)NC)c1 (stereo not shown) [Compound 15, 3-sec-butylphenyl-N-methylcarbamate, reference compound] ?
Completion: 1.94

Prompt: So what's the measured log10 LD50 at 168 h for this one? CNC(=O)Oc1ccccc1C(C)C [Compound 1, 2-isopropylphenyl-N-methylcarbamate, reference compound]
Completion: 2.32

Prompt: Param item = CCCNC(=O)Oc1cccc(C(C)CCC)c1 (stereo not shown) [Compound 21, 3-sec-amylphenyl-N-n-propylcarbamate] ; retrieve measured log10 LD50 at 168 h.
Completion: 2.48

Prompt: Any idea what its log10 LD50 at 168 h is? The compound is CCCC(C)c1cccc(OC(=O)NC)c1 (stereo not shown) [Compound 19, 3-sec-amylphenyl-N-methylcarbamate, reference compound]
Completion: 1.73

Prompt: Recorded log10 LD50 at 168 h of CCCNC(=O)Oc1ccccc1C(C)C [Compound 3, 2-isopropylphenyl-N-n-propylcarbamate] , please.
Completion: 3.05

---

# System: green rice leafhoppers of the strain RN
# measurement.description: Test Example 3: dust spray test (20 mesh metal gauze cylinder)
# Type: in vivo, Nephotettix cincticeps
# condition.notes: Table 9; dust mixed with 1; RN
value.type: death ratio (%), mixture with Compound No. 1
State the answer as a number, implicitly in %.

Prompt: # get_value(readout= death ratio (%), mixture with Compound No. 1, system= green rice leafhoppers of the strain RN) for CCCNC(=O)Oc1cccc(OCC)c1 [Compound 94, 3-ethoxyphenyl-N-n-propylcarbamate]
Completion: 80.0

Prompt: Which measured death ratio (%), mixture with Compound No. 1 belongs to CNC(=O)Oc1ccccc1OC [Compound 76, reference compound] , tested on green rice leafhoppers of the strain RN?
Completion: 15.0

Prompt: # get_value(readout= death ratio (%), mixture with Compound No. 1, system= green rice leafhoppers of the strain RN) for "CCCCNC(=O)Oc1ccccc1OC(C)C"
Completion: 0

Prompt: API: value(readout=death ratio (%), mixture with Compound No. 1, system=green rice leafhoppers of the strain RN) for record C=CCNC(=O)Oc1ccccc1OC(C)C [Compound 85, 2-isopropoxyphenyl-N-allylcarbamate]
Completion: 50.0

Prompt: Query the reported death ratio (%), mixture with Compound No. 1 for green rice leafhoppers of the strain RN; item: CCCNC(=O)Oc1ccccc1OC [Compound 77, 2-methoxyphenyl-N-n-propylcarbamate]
Completion: 95.0

Prompt: What reported death ratio (%), mixture with Compound No. 1 corresponds to CCOc1ccccc1OC(=O)NC [Compound 79, reference compound] on green rice leafhoppers of the strain RN?
Completion: 0

Prompt: Any idea what death ratio (%), mixture with Compound No. 1 came out for CNC(=O)Oc1ccccc1OC(C)C [Compound 81, 2-isopropoxyphenyl-N-methylcarbamate, reference compound] on green rice leafhoppers of the strain RN?
Completion: 0

Prompt: Form: Entry = CCCNC(=O)Oc1ccccc1OCC [Compound 80, 2-ethoxyphenyl-N-n-propylcarbamate] | System = green rice leafhoppers of the strain RN | death ratio (%), mixture with Compound No. 1 = ____
Completion: 65.0

---

# System: green rice leafhoppers of the strain RN
# measurement.description: Test Example 3: dust spray test (20 mesh metal gauze cylinder)
# Format: in vivo, Nephotettix cincticeps
# condition.notes: Table 9; dust mixed with 35*; RN
value.type: death ratio (%), mixture with Compound No. 35*

Prompt: // returns reported death ratio (%), mixture with Compound No. 35* for input CCCNC(=O)Oc1ccccc1OCC [Compound 80, 2-ethoxyphenyl-N-n-propylcarbamate]
Completion: 65.0%

Prompt: Fill in the blank: the reported death ratio (%), mixture with Compound No. 35* of CCCNC(=O)Oc1cccc(OCC)c1 [Compound 94, 3-ethoxyphenyl-N-n-propylcarbamate] is ____.
Completion: 95.0%

Prompt: Consider the compound shown here: CCCNC(=O)Oc1ccccc1OC(C)C [Compound 83, 2-isopropoxyphenyl-N-n-propylcarbamate] What is its recorded death ratio (%), mixture with Compound No. 35*?
Completion: 100%

Prompt: Return reported death ratio (%), mixture with Compound No. 35*; argument: CCNC(=O)Oc1ccccc1OC(C)C [Compound 82, 2-isopropoxyphenyl-N-ethylcarbamate]
Completion: 60.0%

Prompt: Name the reported death ratio (%), mixture with Compound No. 35* value associated with the compound CCCNC(=O)Oc1ccccc1OC [Compound 77, 2-methoxyphenyl-N-n-propylcarbamate]
Completion: 100%

Prompt: Given the compound CCOc1cccc(OC(=O)NC)c1 [Compound 92, reference compound] , what is its reported death ratio (%), mixture with Compound No. 35*?
Completion: 10.0%

Prompt: So what does the record say about death ratio (%), mixture with Compound No. 35* for C=CCNC(=O)Oc1ccccc1OC(C)C [Compound 85, 2-isopropoxyphenyl-N-allylcarbamate] ?
Completion: 75.0%

Prompt: Consider the compound CCOc1ccccc1OC(=O)NC [Compound 79, reference compound] and give its measured death ratio (%), mixture with Compound No. 35*.
Completion: 0%

---

# System: green rice leafhoppers of the strain RN
# measurement.description: Test Example 3: dust spray test (20 mesh metal gauze cylinder)
# Type: in vivo, Nephotettix cincticeps
# condition.notes: Table 9; dust mixed with Methomyl; RN
value.type: death ratio (%), mixture with Methomyl
Give the quantity in %, number only.

Prompt: Requested field: death ratio (%), mixture with Methomyl. Item: CNC(=O)Oc1ccccc1OC(C)C [Compound 81, 2-isopropoxyphenyl-N-methylcarbamate, reference compound]
Completion: 35.0

Prompt: So what does the record say about death ratio (%), mixture with Methomyl for CCCNC(=O)Oc1cccc(OCC)c1 [Compound 94, 3-ethoxyphenyl-N-n-propylcarbamate] ?
Completion: 100

Prompt: Looking for the measured death ratio (%), mixture with Methomyl of CCNC(=O)Oc1ccccc1OC(C)C [Compound 82, 2-isopropoxyphenyl-N-ethylcarbamate] , can you help?
Completion: 85.0

Prompt: Which death ratio (%), mixture with Methomyl reading was recorded for the molecule CCCNC(=O)Oc1ccccc1OC [Compound 77, 2-methoxyphenyl-N-n-propylcarbamate] ?
Completion: 100

---

# System: green rice leafhoppers of the strain RN
# measurement.description: Test Example 3: dust spray test (20 mesh metal gauze cylinder)
# Type: in vivo, Nephotettix cincticeps
# condition.notes: Table 9; dust mixed with 6*; RN
Hi! Just check whether death ratio (%), mixture with Compound No. 6* is below 20%. Below gives true (1), equal or above gives false (0).

Prompt: Quick check: does CNC(=O)Oc1ccccc1OC [Compound 76, reference compound] have death ratio (%), mixture with Compound No. 6* under 20%?
Completion: true (1)

Prompt: Hello, is death ratio (%), mixture with Compound No. 6* of the following compound strictly smaller than 20%? CCOc1cccc(OC(=O)NC)c1 [Compound 92, reference compound]
Completion: true (1)

Prompt: For this compound, is death ratio (%), mixture with Compound No. 6* lower than 20%? C=CCNC(=O)Oc1ccccc1OC(C)C [Compound 85, 2-isopropoxyphenyl-N-allylcarbamate]
Completion: false (0)

Prompt: Below 20% on death ratio (%), mixture with Compound No. 6*? Entry CCCNC(=O)Oc1ccccc1OC [Compound 77, 2-methoxyphenyl-N-n-propylcarbamate]
Completion: false (0)

Prompt: Hello, I'm reviewing records and need to know if death ratio (%), mixture with Compound No. 6* of CCCCNC(=O)Oc1ccccc1OC(C)C [Compound 84] is below 20%. Could you check?
Completion: true (1)

Prompt: Would you kindly verify if death ratio (%), mixture with Compound No. 6* of CCCNC(=O)Oc1cccc(OCC)c1 [Compound 94, 3-ethoxyphenyl-N-n-propylcarbamate] is strictly less than 20%?
Completion: false (0)

Prompt: Criterion: death ratio (%), mixture with Compound No. 6* strictly below 20%. Is it met by CCCNC(=O)Oc1ccccc1OC(C)C [Compound 83, 2-isopropoxyphenyl-N-n-propylcarbamate] ?
Completion: false (0)

Prompt: death ratio (%), mixture with Compound No. 6* strictly < 20% for this compound? CCNC(=O)Oc1ccccc1OC(C)C [Compound 82, 2-isopropoxyphenyl-N-ethylcarbamate]
Completion: false (0)

Prompt: Does CCCNC(=O)Oc1ccccc1OCC [Compound 80, 2-ethoxyphenyl-N-n-propylcarbamate] have death ratio (%), mixture with Compound No. 6* strictly under 20%?
Completion: false (0)

Prompt: Identify whether the compound CCOc1ccccc1OC(=O)NC [Compound 79, reference compound] records death ratio (%), mixture with Compound No. 6* below 20%.
Completion: true (1)

Prompt: Please let me know if CNC(=O)Oc1ccccc1OC(C)C [Compound 81, 2-isopropoxyphenyl-N-methylcarbamate, reference compound] shows death ratio (%), mixture with Compound No. 6* below 20%.
Completion: true (1)
